# Tested on: Rattus norvegicus
# assay-details: In vivo antihistaminic activity using compound 48/80 induced lethality test in rat after 2 hr of oral administration
# Type: functional
Item-by-item account of ED50
Just the number in mg/kg, nothing appended.

# return recorded ED50 for entry Fc1ccc(Cn2c(NC3CCN(CCc4ccncc4)CC3)nc3ccccc32)cc1
1.25

Using the record for OC(COc1ccccc1)CN1CCC(Nc2nc3ccccc3n2Cc2ccc(F)cc2)CC1 (stereo not drawn) , state its measured ED50.
1.25

Return value of ED50 for input COc1ccc(S(=O)(=O)CCCN2CCC(Nc3nc4ccccc4n3Cc3ccc(F)cc3)CC2)cc1 , no commentary.
2.5

Respond only with ED50 recorded for Cl.Oc1cccc(CCN2CCC(Nc3nc4ccccc4n3Cc3ccc(F)cc3)CC2)c1
0.31

Specify ED50 for Cl.Fc1ccc(Cn2c(NC3CCN(CCN4CCOCC4)CC3)nc3ccccc32)cc1 and stop.
2.5

Kindly indicate its recorded ED50. Item: Cl.O=C(COc1ccc(CCN2CCC(Nc3nc4ccccc4n3Cc3ccc(F)cc3)CC2)cc1)N1CCCCC1
1.25

Tell me measured ED50 for Nc1ccc(CCN2CCC(Nc3nc4ccccc4n3Cc3ccc(F)cc3)CC2)cc1 please.
0.63

Please supply the value of reported ED50 for the item Oc1nc2ccccc2n1CCCN1CCC(Nc2nc3ccccc3n2Cc2ccc(F)cc2)CC1
1.25

---

# Tested on: Cavia porcellus
# assay-details: In vivo histamine induced lethality after 48 hours of iv administration in guinea pig
# Type: functional
Recorded ED50, one value per entry.
Your answer should be a plain number; it is taken to be in mg/kg.

Below, 2 molecules whose answers are already recorded.
Give ED50 for COc1ccc(CCN2CCC(Nc3nc4ccccc4n3Cc3ccc(F)cc3)CC2)cc1
0.04

In one line, give reported ED50 of the entry Oc1ccc(CCN2CCC(Nc3nc4ccccc4n3Cc3ccc(F)cc3)CC2)cc1 .
0.12

More entries:
Look up and report measured ED50 for this entry: Br.OCCN1CCC(Nc2nc3ccccc3n2Cc2ccc(F)cc2)CC1
0.3

---

ED50 reference
# Test system: Rattus norvegicus
# assay-details: In vivo antihistaminic activity using compound 48/80 induced lethality test in rat after 2 hr of oral administration
# Type: functional
Dear colleague, please return just the value in mg/kg, with no unit written.

Enter measured ED50, system Rattus norvegicus, for the molecule shown: Fc1ccc(Cn2c(NC3CCN(CCCCOc4ccccc4)CC3)nc3ccccc32)cc1
0.63

Give ED50 for COc1ccc(CCN2CCC(Nc3nc4ccccc4n3Cc3ccc(F)cc3)CC2)cc1OC tested on Rattus norvegicus.
0.16

Look up and report ED50, with Rattus norvegicus as system, for N#CCN1CCC(Nc2nc3ccccc3n2Cc2ccc(F)cc2)CC1
2.5

From here, focus on the item given below.
Provide ED50, system Rattus norvegicus, entry COc1ccc(OC)c(CCN2CCC(Nc3nc4ccccc4n3Cc3ccc(F)cc3)CC2)c1
0.63

---

# System: Rattus norvegicus
# assay-details: In vivo antihistaminic activity using compound 48/80 induced lethality test in rat after 2 hr of oral administration
# Format: functional
// classify: if (ED50 < 0.3 mg/kg) Met else Not met

Field: below-cutoff. Rule: recorded ED50 strictly less than 0.3 mg/kg. Subject: COC(=O)Oc1ccc(CCN2CCC(Nc3nc4ccccc4n3Cc3ccc(F)cc3)CC2)cc1
Met

Threshold test, ED50 < 0.3 mg/kg: COc1cccc(CCN2CCC(Nc3nc4ccccc4n3Cc3ccc(F)cc3)CC2)c1.Cl
Not met

Does this molecule meet the criterion ED50 < 0.3 mg/kg? CC(c1ccccc1)N1CCC(Nc2nc3ccccc3n2Cc2ccc(F)cc2)CC1 (configuration not stated)
Not met

hey, is ED50 for COc1ccc(C(=O)Oc2ccc(CCN3CCC(Nc4nc5ccccc5n4Cc4ccc(F)cc4)CC3)cc2)cc1 lower than 0.3 mg/kg or not?
Met

Is 0.3 mg/kg strictly greater than the molecule's reported ED50? molecule: COc1ccc(OCCCN2CCC(Nc3nc4ccccc4n3Cc3ccc(F)cc3)CC2)cc1
Not met

Strictly below 0.3 mg/kg: is that where ED50 of Br.Br.Fc1ccc(Cn2c(NC3CCNCC3)nc3ccccc32)cc1 sits?
Not met

Input Br.OCCN1CCC(Nc2nc3ccccc3n2Cc2ccc(F)cc2)CC1 ; condition: ED50 strictly below 0.3 mg/kg. Does it hold?
Not met

Hello, I'm reviewing records and need to know if ED50 of Fc1ccc(Cn2c(NC3CCN(CCc4ccccn4)CC3)nc3ccccc32)cc1 is below 0.3 mg/kg. Could you check?
Not met

Hello, I'm reviewing records and need to know if ED50 of Fc1ccc(Cn2c(NC3CCN(C4CCCCC4)CC3)nc3ccccc32)cc1 is below 0.3 mg/kg. Could you check?
Not met
